Quick record: Ki, Coagulation factor X (Homo sapiens, UniProt P00742).
Give a bare numeral; the unit nM is implied.

Ask | What does the data say about its Ki? Entry: COc1ccc2ccc(S(=O)(=O)NC3CCN(Cc4cc(C(=N)N)ccc4OCC(=O)O)C3=O)cc2c1 (stereo not drawn)
Reply | 1260

Ask | Moving on to COc1ccc(-n2nc(C(F)(F)F)c3c2C(=O)N(c2ccc(-c4ccccc4S(C)(=O)=O)cc2)CC3)cc1
Reply | 0.2

Ask | Next record, please: COc1ccc(-n2nc(C(F)(F)F)c3c2C(=O)N(c2ccc(NC(C)=O)cc2)CC3)cc1
Reply | 200
